tested on: A549; test: NCI tumour cell line growth inhibition, 48 h
Activity calls are given as the source filed them. Cut-off read from the data, not from the text of the source: active = GI50 up to about 1.1 µM and inactive = higher.
Classes used: true (1) for active, false (0) for inactive

COMPOUND: Nc1[nH]nc2ccccc12
TARGET ENTITY: A549
ASSIGNED CATEGORY: false (0)
//
COMPOUND: COC(=O)C1=CCON(c2ccccc2)C1c1ccccc1 (configuration not stated)
TARGET ENTITY: A549
ASSIGNED CATEGORY: false (0)
//
COMPOUND: CCOC(=O)O/N=C1/C(=C2/C(=O)Nc3ccccc32)Nc2ccccc21
TARGET ENTITY: A549
ASSIGNED CATEGORY: false (0)
//
COMPOUND: Oc1nc2cc3nc(O)c(O)nc3cc2nc1O
TARGET ENTITY: A549
ASSIGNED CATEGORY: false (0)
//
COMPOUND: O=[N+]([O-])c1cc(-c2nnc(S)[nH]2)ccc1O
TARGET ENTITY: A549
ASSIGNED CATEGORY: false (0)
//
COMPOUND: COC(=O)NC1(NC(=O)OC)NC(=O)c2cc(OC)c(OC)c(OC)c2N1
TARGET ENTITY: A549
ASSIGNED CATEGORY: true (1)
//
COMPOUND: CC1(C)C2CC(O)C1CCC2=O (configuration not stated)
TARGET ENTITY: A549
ASSIGNED CATEGORY: false (0)
//
COMPOUND: O=C(CN1CCCC1=O)CS(=O)(=O)c1ccccc1
TARGET ENTITY: A549
ASSIGNED CATEGORY: false (0)
//
COMPOUND: NC(=S)N/N=C/c1nccc2ccccc12
TARGET ENTITY: A549
ASSIGNED CATEGORY: true (1)
//
COMPOUND: O=C1c2cc([N+](=O)[O-])ccc2-c2cccc(F)c21
TARGET ENTITY: A549
ASSIGNED CATEGORY: false (0)
//
COMPOUND: FC1(F)ON2CCc3ccccc3C2[C@H]1c1ccccc1 (some centres not stated)
TARGET ENTITY: A549
ASSIGNED CATEGORY: false (0)
//
COMPOUND: C#CC(O)/C=C/C(O)CCCC(O)CC#CC(O)C#CC(O)CCCC(O)/C=C/CCCC(=O)CCCCCCCCCCCCCCCC(O)C(O)C#CC(=O)O (configuration not stated)
TARGET ENTITY: A549
ASSIGNED CATEGORY: false (0)
//
COMPOUND: Cc1ccc(NNc2cc(=O)[nH]c(=O)[nH]2)cc1Cl
TARGET ENTITY: A549
ASSIGNED CATEGORY: false (0)
//
COMPOUND: C/C(=C(/C)c1cc[n+](C)cc1)c1cc[n+](C)cc1
TARGET ENTITY: A549
ASSIGNED CATEGORY: false (0)
//
COMPOUND: COC(=O)c1cncc2c1CC1C3(C(=O)OC)C=NC(C4C(CO)=CCC43)C21C (configuration not stated)
TARGET ENTITY: A549
ASSIGNED CATEGORY: false (0)
//
COMPOUND: CC(=O)NC1C(OCc2ccccc2)OC(CO)C(O)C1OCC(=O)NC(C)C(=O)NC(CCC(=O)OCCNC(=O)c1cccc2cc3ccccc3nc12)C(N)=O (configuration not stated)
TARGET ENTITY: A549
ASSIGNED CATEGORY: false (0)
//
COMPOUND: COC(=O)C1=C(C(=O)OC)C2(c3ccccc3)c3ccccc3C(=O)C1N2C1CCCCC1 (configuration not stated)
TARGET ENTITY: A549
ASSIGNED CATEGORY: false (0)
//
COMPOUND: O=C(O)c1ccc([Se][Se]c2ccc(C(=O)O)cc2)cc1
TARGET ENTITY: A549
ASSIGNED CATEGORY: false (0)
//
COMPOUND: CC(=O)Nc1ccc(S(=O)(=O)N/N=C(\C)CN2C(=O)c3ccccc3C2=O)cc1
TARGET ENTITY: A549
ASSIGNED CATEGORY: false (0)
//
COMPOUND: COc1cc2c(c(O)c1C)C(=O)CC(c1ccccc1)O2 (configuration not stated)
TARGET ENTITY: A549
ASSIGNED CATEGORY: false (0)
//
COMPOUND: Cc1cccc(N(C(=O)Nc2ccc(Cl)c(Cl)c2)C2=NCC(C)S2)c1 (configuration not stated)
TARGET ENTITY: A549
ASSIGNED CATEGORY: false (0)
//
COMPOUND: CC1CC/C(=C\c2ccc(Cl)cc2)c2nc(N)c(C#N)c(-c3ccc(Cl)cc3)c21 (configuration not stated)
TARGET ENTITY: A549
ASSIGNED CATEGORY: false (0)
